# experimental target: E. coli RNA polymerase σ^70 holoenzyme (Escherichia coli, UniProt P0A8T7+P0A8V2)
# Sequence (P0A8T7 whole entry): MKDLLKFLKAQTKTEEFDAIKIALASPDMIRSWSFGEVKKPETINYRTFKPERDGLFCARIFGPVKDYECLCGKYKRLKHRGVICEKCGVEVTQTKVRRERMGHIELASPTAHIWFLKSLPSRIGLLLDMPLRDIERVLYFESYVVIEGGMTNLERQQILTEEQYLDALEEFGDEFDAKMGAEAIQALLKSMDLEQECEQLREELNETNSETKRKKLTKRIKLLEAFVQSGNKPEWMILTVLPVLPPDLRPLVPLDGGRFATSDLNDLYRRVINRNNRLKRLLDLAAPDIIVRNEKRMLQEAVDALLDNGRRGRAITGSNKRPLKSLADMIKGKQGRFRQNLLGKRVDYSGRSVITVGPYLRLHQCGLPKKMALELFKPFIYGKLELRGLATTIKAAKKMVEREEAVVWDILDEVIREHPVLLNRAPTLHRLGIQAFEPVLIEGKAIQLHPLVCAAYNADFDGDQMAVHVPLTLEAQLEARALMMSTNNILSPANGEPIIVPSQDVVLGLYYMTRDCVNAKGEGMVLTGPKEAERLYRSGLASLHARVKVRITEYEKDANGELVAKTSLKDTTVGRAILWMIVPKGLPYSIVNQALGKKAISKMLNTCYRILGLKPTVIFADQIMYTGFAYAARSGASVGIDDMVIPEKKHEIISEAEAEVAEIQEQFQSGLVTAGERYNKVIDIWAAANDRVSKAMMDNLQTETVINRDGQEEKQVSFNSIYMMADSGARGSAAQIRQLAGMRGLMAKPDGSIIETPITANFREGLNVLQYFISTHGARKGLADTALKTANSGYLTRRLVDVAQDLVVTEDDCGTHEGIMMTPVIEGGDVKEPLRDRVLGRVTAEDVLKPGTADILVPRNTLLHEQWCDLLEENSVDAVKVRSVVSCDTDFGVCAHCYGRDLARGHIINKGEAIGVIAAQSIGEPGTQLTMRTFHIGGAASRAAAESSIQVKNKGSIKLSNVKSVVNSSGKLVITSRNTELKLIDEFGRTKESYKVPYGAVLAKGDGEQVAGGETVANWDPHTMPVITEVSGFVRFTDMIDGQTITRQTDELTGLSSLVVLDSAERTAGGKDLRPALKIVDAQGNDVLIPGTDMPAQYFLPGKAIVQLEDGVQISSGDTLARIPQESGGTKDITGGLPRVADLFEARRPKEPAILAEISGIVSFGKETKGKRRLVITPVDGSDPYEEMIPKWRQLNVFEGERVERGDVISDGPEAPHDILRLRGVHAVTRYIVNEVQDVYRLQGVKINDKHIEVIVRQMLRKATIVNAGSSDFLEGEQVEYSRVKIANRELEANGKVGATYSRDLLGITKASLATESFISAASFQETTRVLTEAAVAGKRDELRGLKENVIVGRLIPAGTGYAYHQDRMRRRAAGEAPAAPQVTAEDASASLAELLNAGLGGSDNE
# Sequence (P0A800 whole entry, further chain): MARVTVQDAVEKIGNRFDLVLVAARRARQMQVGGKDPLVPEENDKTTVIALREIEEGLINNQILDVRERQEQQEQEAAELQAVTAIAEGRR
# Sequence (P0A8V2 whole entry): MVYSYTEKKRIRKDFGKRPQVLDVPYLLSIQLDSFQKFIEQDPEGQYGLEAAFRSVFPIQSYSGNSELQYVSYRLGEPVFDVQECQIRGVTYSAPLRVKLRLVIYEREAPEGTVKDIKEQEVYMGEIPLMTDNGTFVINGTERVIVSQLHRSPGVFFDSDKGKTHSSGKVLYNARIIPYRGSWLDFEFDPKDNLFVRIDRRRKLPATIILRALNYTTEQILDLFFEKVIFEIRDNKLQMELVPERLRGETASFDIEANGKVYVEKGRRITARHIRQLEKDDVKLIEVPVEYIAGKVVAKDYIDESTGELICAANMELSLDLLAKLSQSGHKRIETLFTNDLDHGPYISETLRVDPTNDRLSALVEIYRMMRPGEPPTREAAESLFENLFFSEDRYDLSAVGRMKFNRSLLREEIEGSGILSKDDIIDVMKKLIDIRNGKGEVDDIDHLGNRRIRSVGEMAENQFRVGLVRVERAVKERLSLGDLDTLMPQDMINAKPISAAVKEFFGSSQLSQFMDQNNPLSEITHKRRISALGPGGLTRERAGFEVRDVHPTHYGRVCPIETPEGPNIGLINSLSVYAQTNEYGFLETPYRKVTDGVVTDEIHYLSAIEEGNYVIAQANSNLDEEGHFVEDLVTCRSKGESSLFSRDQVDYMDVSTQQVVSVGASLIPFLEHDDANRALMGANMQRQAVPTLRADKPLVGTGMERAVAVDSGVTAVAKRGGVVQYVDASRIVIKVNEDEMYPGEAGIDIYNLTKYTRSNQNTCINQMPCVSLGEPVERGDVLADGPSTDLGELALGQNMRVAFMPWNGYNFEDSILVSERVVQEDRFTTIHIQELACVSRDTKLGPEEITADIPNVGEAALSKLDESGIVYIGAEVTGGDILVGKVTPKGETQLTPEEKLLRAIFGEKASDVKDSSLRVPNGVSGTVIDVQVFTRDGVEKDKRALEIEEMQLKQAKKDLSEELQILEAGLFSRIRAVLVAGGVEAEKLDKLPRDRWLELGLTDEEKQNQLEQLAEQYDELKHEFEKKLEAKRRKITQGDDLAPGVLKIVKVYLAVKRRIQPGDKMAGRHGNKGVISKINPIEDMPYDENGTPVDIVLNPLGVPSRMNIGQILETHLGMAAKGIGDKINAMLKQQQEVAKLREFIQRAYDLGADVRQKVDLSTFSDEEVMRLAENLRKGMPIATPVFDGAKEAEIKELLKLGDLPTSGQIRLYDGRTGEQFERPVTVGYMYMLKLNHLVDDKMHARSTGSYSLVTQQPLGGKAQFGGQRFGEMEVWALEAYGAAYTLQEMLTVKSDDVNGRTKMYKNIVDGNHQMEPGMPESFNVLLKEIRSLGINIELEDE
# Sequence (P00579 whole entry, further chain): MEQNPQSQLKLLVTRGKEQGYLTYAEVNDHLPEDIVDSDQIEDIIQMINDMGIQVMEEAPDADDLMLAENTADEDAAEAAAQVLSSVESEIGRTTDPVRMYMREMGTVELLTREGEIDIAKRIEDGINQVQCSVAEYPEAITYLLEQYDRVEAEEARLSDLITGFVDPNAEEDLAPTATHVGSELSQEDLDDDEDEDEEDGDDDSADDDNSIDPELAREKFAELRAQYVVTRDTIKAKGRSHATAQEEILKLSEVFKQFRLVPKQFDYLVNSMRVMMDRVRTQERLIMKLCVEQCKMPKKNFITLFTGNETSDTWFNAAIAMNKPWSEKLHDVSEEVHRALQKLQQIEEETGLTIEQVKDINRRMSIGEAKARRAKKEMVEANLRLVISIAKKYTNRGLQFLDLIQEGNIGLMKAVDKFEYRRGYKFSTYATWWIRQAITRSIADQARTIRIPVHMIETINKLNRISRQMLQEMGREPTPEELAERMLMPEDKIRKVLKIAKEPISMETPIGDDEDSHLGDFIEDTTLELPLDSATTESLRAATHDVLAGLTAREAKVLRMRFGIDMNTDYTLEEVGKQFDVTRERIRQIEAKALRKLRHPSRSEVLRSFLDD
# Sequence (P0A7Z4 whole entry, further chain): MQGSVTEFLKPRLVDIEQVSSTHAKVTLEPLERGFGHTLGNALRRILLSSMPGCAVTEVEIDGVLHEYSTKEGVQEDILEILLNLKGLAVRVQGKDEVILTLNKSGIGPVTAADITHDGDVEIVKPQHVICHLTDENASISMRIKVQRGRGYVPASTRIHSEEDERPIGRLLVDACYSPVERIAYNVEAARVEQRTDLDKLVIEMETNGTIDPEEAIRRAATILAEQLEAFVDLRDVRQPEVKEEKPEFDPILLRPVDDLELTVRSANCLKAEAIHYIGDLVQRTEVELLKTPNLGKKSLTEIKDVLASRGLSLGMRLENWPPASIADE
# experiment description: Fluorescence-detected RNA polymerase assay, E. coli RNA polymerase
# details: read-out: IC50 E. coli RNAP
pIC50: −log10 of the molar value.
Mark Condition met for reported pIC50 of 7 or greater; mark Condition not met for anything smaller.

# input Assess whether reported pIC50 for CCOc1ccc(C=C(C)C(=O)c2c(O)cc(C(C)CC/C=C/NC(=O)OC)oc2=O)s1 (mixture of isomers) [APY102] sits at 7 or higher.
# output Condition not met

# input Assess whether reported pIC50 for COC(=O)N/C=C/CCC(C)c1cc(O)c(C(=O)C(C)=Cc2ccc(CCC(C)C)cc2)c(=O)o1 (mixture of isomers) [APY73] sits at 7 or higher.
# output Condition met

# input Assess whether reported pIC50 for CCCCCc1ccc(C=C(C)C(=O)c2c(O)cc(C(C)CC/C=C/NC(=O)OC)oc2=O)cc1 (mixture of isomers) [APY72] sits at 7 or higher.
# output Condition not met

# input Assess whether reported pIC50 for CCCCCCc1ccc(C=C(C)C(=O)c2c(O)cc(C(C)CC/C=C/NC(=O)OC)oc2=O)cc1 (mixture of isomers) [APY33] sits at 7 or higher.
# output Condition met

# input Assess whether reported pIC50 for COC(=O)N/C=C/CCC(C)c1cc(O)c(C(=O)C(C)=Cc2ccc(Oc3ccc(C(F)(F)F)cc3)s2)c(=O)o1 (mixture of isomers) [APY119] sits at 7 or higher.
# output Condition met

# input Assess whether reported pIC50 for CCCCCCc1ccc(C=C(C)C(=O)c2c(O)cc(C(C)CC/C=C/NC(=O)OC)oc2=O)s1 (mixture of isomers) [APY15] sits at 7 or higher.
# output Condition met

# input Assess whether reported pIC50 for COC(=O)N/C=C/CCC(C)c1cc(O)c(C(=O)C(C)=Cc2ccc(OCC(F)(F)F)s2)c(=O)o1 (mixture of isomers) [APY116] sits at 7 or higher.
# output Condition met

# input Assess whether reported pIC50 for COC(=O)N/C=C/CCC(C)c1cc(O)c(C(=O)C(C)=Cc2ccc(OCC(F)F)s2)c(=O)o1 (mixture of isomers) [APY138] sits at 7 or higher.
# output Condition not met

# input Assess whether reported pIC50 for COC(=O)N/C=C/CCC(C)c1cc(O)c(C(=O)C(C)=Cc2ccc(C)cc2)c(=O)o1 (mixture of isomers) [APY57] sits at 7 or higher.
# output Condition not met

# input Assess whether reported pIC50 for COC(=O)N/C=C/CCC(C)c1cc(O)c(C(=O)C(C)=Cc2ccc(CCCCCC(F)(F)F)s2)c(=O)o1 (mixture of isomers) [APY82] sits at 7 or higher.
# output Condition met

# input Assess whether reported pIC50 for COC(=O)N/C=C/CCC(C)c1cc(O)c(C(=O)C(C)=Cc2ccc(OCC(F)F)cc2C)c(=O)o1 (mixture of isomers) [APY131] sits at 7 or higher.
# output Condition not met

# input Assess whether reported pIC50 for COC(=O)N/C=C/CCC(C)c1cc(O)c(C(=O)C(C)=Cc2ccc(CCC(F)(F)F)cc2)c(=O)o1 (mixture of isomers) [APY74] sits at 7 or higher.
# output Condition met

# input Assess whether reported pIC50 for CCCCc1ncc(C=C(C)C(=O)c2c(O)cc(C(C)CC/C=C/NC(=O)OC)oc2=O)s1 (mixture of isomers) [APY136] sits at 7 or higher.
# output Condition met

# input Assess whether reported pIC50 for CCCCc1ccc2oc(C=C(C)C(=O)c3c(O)cc(C(C)CC/C=C/NC(=O)OC)oc3=O)cc2c1 (mixture of isomers) [APY25] sits at 7 or higher.
# output Condition met

# input Assess whether reported pIC50 for COC(=O)N/C=C/CCC(C)c1cc(O)c(C(=O)C(C)=Cc2cccc(OCCC(C)C)c2)c(=O)o1 (mixture of isomers) [APY51] sits at 7 or higher.
# output Condition not met

# input Assess whether reported pIC50 for CCCCCCc1ccc(C=C(C)C(=O)c2c(O)cc(C(C)CC/C=C/NC(=O)OC)oc2=O)o1 (mixture of isomers) [APY17] sits at 7 or higher.
# output Condition met

# input Assess whether reported pIC50 for CCCOc1ccc2c(c1)cc(C=C(C)C(=O)c1c(O)cc(C(C)CC/C=C/NC(=O)OC)oc1=O)n2C (mixture of isomers) [APY121] sits at 7 or higher.
# output Condition not met

# input Assess whether reported pIC50 for CCCCc1ccc(C=CC(=O)c2c(O)cc(C(C)CC/C=C/NC(=O)OC)oc2=O)s1 (mixture of isomers) [APY36] sits at 7 or higher.
# output Condition not met

# input Assess whether reported pIC50 for CCCCc1ccc(C=C(C)C(=O)c2c(O)cc(C(C)CC/C=C/NC(=O)OC)oc2=O)cc1 (mixture of isomers) [APY41] sits at 7 or higher.
# output Condition met

# input Assess whether reported pIC50 for COC(=O)N/C=C/CCC(C)c1cc(O)c(C(=O)C(C)=Cc2ccc(OC(C)C)s2)c(=O)o1 (mixture of isomers) [APY107] sits at 7 or higher.
# output Condition met

# input Assess whether reported pIC50 for C=CCCc1ccc(C=C(C)C(=O)c2c(O)cc(C(C)CC/C=C/NC(=O)OC)oc2=O)s1 (mixture of isomers) [APY28] sits at 7 or higher.
# output Condition met

# input Assess whether reported pIC50 for CCCCCCc1cccc(C=C(C)C(=O)c2c(O)cc(C(C)CC/C=C/NC(=O)OC)oc2=O)c1 (mixture of isomers) [APY34] sits at 7 or higher.
# output Condition met

# input Assess whether reported pIC50 for COC(=O)N/C=C/CCC(C)c1cc(O)c(C(=O)C(C)=Cc2cc3cc(OC(C)C)ccc3n2C)c(=O)o1 (mixture of isomers) [APY123] sits at 7 or higher.
# output Condition not met

# input Assess whether reported pIC50 for CCCOc1ccc(C=C(C)C(=O)c2c(O)cc(C(C)CC/C=C/NC(=O)OC)oc2=O)s1 (mixture of isomers) [APY103] sits at 7 or higher.
# output Condition met

# input Assess whether reported pIC50 for COC(=O)N/C=C/CCC(C)c1cc(O)c(C(=O)C(C)=Cc2cc3ccc(CCC(F)(F)F)cc3o2)c(=O)o1 (mixture of isomers) [APY112] sits at 7 or higher.
# output Condition not met

These entries and their values trace back to patent US9592221B2.
